Hello, the source for this data is patent US11053234B2, in case you need it.

target: haematopoietic prostaglandin D synthase (H-PGDS) (Homo sapiens, UniProt O60760); construct: Full length human H-PGDS cDNA (Invitrogen Ultimate ORF 10H13026) was amplified by PCR; 6-His (N); TEV protease cleavage site (N); made in house; host or cells: E. coli BL21 (DE3*), vector pET22b+; experiment: H-PGDS RapidFire high throughput mass spectrometry assay (conversion of PGH2 to PGD2); format: biochemical; settings: 10 nM H-PGDS, PGH2 formed in situ by COX-2 from arachidonic acid; read-out: Potency Range (mean pIC50) (converted)
Sequence (O60760 whole entry): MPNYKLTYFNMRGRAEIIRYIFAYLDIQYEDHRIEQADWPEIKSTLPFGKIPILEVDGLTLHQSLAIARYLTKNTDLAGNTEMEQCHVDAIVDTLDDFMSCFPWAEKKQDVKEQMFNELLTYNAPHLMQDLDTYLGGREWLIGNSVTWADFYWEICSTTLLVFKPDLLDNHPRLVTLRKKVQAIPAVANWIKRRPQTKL
// values below are reported IC50

COc1cc(F)ccc1O[C@H]1C[C@H](C(=O)N[C@H]2CC[C@H](C(C)(C)O)CC2)C1 ... 100 to 1000 nM

Query: Dear colleague, I am looking for the recorded IC50 of the following molecule: CC(C)(O)[C@H]1C[C@H](NC(=O)[C@H]2C[C@H](Oc3cc(F)cc4cccnc34)C2)C1
Reply: 100 to 1000 nM

Query: Dear colleague, I am looking for the recorded IC50 of the following molecule: O=C(NC1CN(c2ccc(F)cn2)C1)[C@H]1C[C@H](Oc2cccc3scnc23)C1
Reply: 10 to 79.4 nM

Query: Dear colleague, I am looking for the recorded IC50 of the following molecule: CC(O)(CO[C@H]1CC[C@H](NC(=O)N2CC(Oc3cccc4scnc34)C2)CC1)C1CC1 (mixture of isomers)
Reply: 10 to 79.4 nM

Query: Dear colleague, I am looking for the recorded IC50 of the following molecule: Cn1nc(C2CC2)cc1NC(=O)N1CC(Oc2cccc3scnc23)C1
Reply: 10 to 79.4 nM

Query: Dear colleague, I am looking for the recorded IC50 of the following molecule: CC(C)(O)c1cnc(N2CC(NC(=O)[C@H]3C[C@H](Oc4cccc5scnc45)C3)C2)o1
Reply: 10 to 79.4 nM

Query: Dear colleague, I am looking for the recorded IC50 of the following molecule: O=C1NCC[C@@H]1NC(=O)N1CC(Oc2cccc3scnc23)C1
Reply: 100 to 1000 nM

Query: Dear colleague, I am looking for the recorded IC50 of the following molecule: CC(C)(O)[C@H]1CC[C@H](NC(=O)[C@H]2C[C@H](Oc3cccc4cccnc34)C2)CC1
Reply: 10 to 79.4 nM

Query: Dear colleague, I am looking for the recorded IC50 of the following molecule: O=C(N[C@H]1CC[C@H](NC(CO)C(F)(F)F)CC1)[C@H]1C[C@H](Oc2cc(F)cc3scnc23)C1 (mixture of isomers)
Reply: 10 to 79.4 nM
